test system: NCI-H226 lung; assay: NCI-60 one-dose screen, 48 h; settings: 10 µM unless noted
This is part of a sample that, as a whole, favours compounds with a hit. Of some 83,000 tested, about 20% had one in any assay. The source made the active and inactive calls. How the source made its calls: active means growth percent below 10; inactive means the rest.
Give your call using only these classes: active, inactive

Sample answers from the record:
COc1ccc(/C=C/C(=O)c2cc3c(N)c(C(=O)Nc4cccc5ccccc45)sc3nc2C)cc1 :: inactive
N#C/C(=C\c1c(-c2ccccc2)[nH]c2ccccc12)C(N)=O :: inactive
O=C1/C(=C/c2ccccc2O)CC/C1=C\c1ccccc1O :: inactive
O=C1C(Cl)=C(Nc2ccc(S(=O)(=O)N3CCOCC3)cc2)C(=O)c2ccccc21 :: inactive
Cn1ccc(=O)c(C(=O)Nc2nsc3ccc([N+](=O)[O-])cc23)c1 :: inactive

Check the results log: what was the call for `CCOC(=O)c1cc(C)n(-c2ccc(C(=O)O)cc2)c1C` ?
inactive

Check the results log: what was the call for `O=C(Nc1nc(-c2ccc(Cl)cc2)nc2c1sc(=S)n2-c1ccccc1)C(F)(F)F` ?
inactive

Check the results log: what was the call for `Cc1ccc2c(n1)C(=O)C(Br)=C(CC(C)C)C2=O` ?
inactive

Check the results log: what was the call for `Oc1c(Br)cc(Br)c2ccc(Cn3cc(-c4ccccc4C(F)(F)F)nn3)nc12` ?
inactive

Check the results log: what was the call for `Cc1ccc(-c2nc(N3CCCNCC3)c3oc(-c4ccc(C)cc4)nc3n2)cc1` ?
inactive

Check the results log: what was the call for `O=C1c2ccccc2-c2c1c1c(=O)[nH]c3ccccc3c1n2Cc1ccccc1` ?
inactive

Check the results log: what was the call for `CCN(CC)Cc1cc(C=C2C(=O)NC(=S)NC2=O)cc(OC)c1O` ?
inactive

Check the results log: what was the call for O=C(OC(CO)C(=O)NC12CC3CC(CC(C3)C1)C2)c1ccc(Cl)cc1 (stereo not given) ?
inactive

Check the results log: what was the call for `COc1cc(OCc2cccc(Br)c2C)cc(OC)c1C=O` ?
inactive

Check the results log: what was the call for `O=C(Nc1nc2cc(C(=O)N3CCN(C(c4ccccc4)c4ccccc4)CC3)ccc2o1)c1ccc(NC2CCCCC2)c([N+](=O)[O-])c1` ?
inactive

Check the results log: what was the call for `NC(=O)c1cccc(-n2ccc3cc(NC(=O)c4ccc(N5CCOCC5)c(C(F)(F)F)c4)ccc32)n1` ?
inactive

Check the results log: what was the call for `COc1ccc(C/C(C)=C(\c2ccc(Cl)cc2)c2ccc(OCCN3CCCCC3)cc2)cc1` ?
inactive

Check the results log: what was the call for `COc1ccc(C/C(C)=C(/c2ccc(OCCN(C)C)cc2)c2ccc(OC(=O)NCc3ccccc3)cc2)cc1` ?
inactive

Check the results log: what was the call for `CCCCCCCC[C@@H]1N[C@@H](C(=O)OC)Cc2c1[nH]c1ccccc21` ?
inactive

Check the results log: what was the call for `CCCCCCCCCCCCCCCCCCOc1ccccc1CC(=O)OCC[N+](C)(C)C` ?
inactive
